system: PC-3; test: NCI tumour cell line growth inhibition, 48 h
Calls of active or inactive are those of the source. Cut-off read from the data, not from the text of the source: active = GI50 up to about 1.1 µM and inactive = higher.
Classes used: True (active), False (inactive)

[
  {
    "COMPOUND": "Cn1c(=O)sc2cc(C(=S)N3CCCCC3)ccc21",
    "CLASSIFICATION": "False"
  },
  {
    "COMPOUND": "COc1cc2c(cc1OC)C13CCN4C=C5CCOC6CC(=O)N2C1C6C5CC43 (configuration not stated)",
    "CLASSIFICATION": "False"
  },
  {
    "COMPOUND": "ClCC1(CCl)COC1",
    "CLASSIFICATION": "False"
  },
  {
    "COMPOUND": "CCCCCCCCCCCCCCCCCCNc1ccn(C2OC(CO)C(OP(=O)(O)OCC3CCC(n4ccc(N)nc4=O)O3)C2O)c(=O)n1 (configuration not stated)",
    "CLASSIFICATION": "False"
  },
  {
    "COMPOUND": "CO/N=C/c1c(-c2ccc(Cl)cc2)c(/C=N/OC)n2c1sc1ccccc12",
    "CLASSIFICATION": "False"
  },
  {
    "COMPOUND": "CN(C)CN1CSC(=S)N(CN(C)C)C1",
    "CLASSIFICATION": "False"
  },
  {
    "COMPOUND": "NC(=O)[C@H](Cc1ccc(O)cc1)NC1=C(Cl)C(=O)c2c(O)ccc(O)c2C1=O",
    "CLASSIFICATION": "False"
  },
  {
    "COMPOUND": "O=C(CSCC(=O)N/N=C\\c1cc(Cl)cc(Cl)c1O)N/N=C\\c1cc(Cl)cc(Cl)c1O",
    "CLASSIFICATION": "False"
  },
  {
    "COMPOUND": "N#C/C(=C\\N1CCNC1=S)C(=O)c1ccc2ccccc2c1",
    "CLASSIFICATION": "False"
  },
  {
    "COMPOUND": "O=C1C(O)=C(C(C2=C(O)C(=O)c3ccccc3C2=O)c2ccc(Cl)cc2)C(=O)c2ccccc21",
    "CLASSIFICATION": "False"
  },
  {
    "COMPOUND": "CSc1[nH]nc(N)c1C(=O)Nc1ccc(C)cc1",
    "CLASSIFICATION": "False"
  },
  {
    "COMPOUND": "O=c1oc2ccc3ccccc3c2cc1-c1cn2ccsc2n1",
    "CLASSIFICATION": "False"
  },
  {
    "COMPOUND": "CCOC(=O)c1ccc(NC2Oc3cc4c(cc3C(c3cc(OC)c(OC)c(OC)c3)C2C)OCO4)cc1 (configuration not stated)",
    "CLASSIFICATION": "True"
  },
  {
    "COMPOUND": "Oc1c2c(c(O)c3ccccc13)C1(N=N2)c2ccccc2Oc2ccccc21",
    "CLASSIFICATION": "False"
  },
  {
    "COMPOUND": "COc1cccc(-n2c(N)c(-c3nc4cc(C(F)(F)F)ccc4s3)c3ccc([N+](=O)[O-])cc3c2=O)c1",
    "CLASSIFICATION": "False"
  },
  {
    "COMPOUND": "C(=N\\c1ccc(-c2nc3ccccc3s2)cc1)/c1cccs1",
    "CLASSIFICATION": "False"
  },
  {
    "COMPOUND": "C=CCc1cccc(C(=O)/C=C(O)/C=C/c2ccccc2Cl)c1O",
    "CLASSIFICATION": "False"
  }
]

###

# Lookup of reported GI50 keyed by entry
system: Hs-578T; assay: NCI tumour cell line growth inhibition, 48 h
The source made the active and inactive calls. Rule as the data show it: active = GI50 up to about 1.1 µM and inactive = higher.
ENDPOINT_LABEL: GI50

[
  {
    "MOLECULE": "O=[N+]([O-])/C(C(Cl)=C(Cl)Cl)=C1\\NCCO1",
    "TESTED_ON": "Hs-578T",
    "MEASURED_RESULT": "47.5 µM (inactive)"
  },
  {
    "MOLECULE": "NC(CSS(=O)(=O)c1ccccc1)C(=O)O (stereo unspecified)",
    "TESTED_ON": "Hs-578T",
    "MEASURED_RESULT": "> 10 µM (inactive)"
  },
  {
    "MOLECULE": "O=C(NC(=O)c1c(Cl)nc2sccn12)Nc1ccc(Cl)cc1",
    "TESTED_ON": "Hs-578T",
    "MEASURED_RESULT": "8.81 µM (inactive)"
  },
  {
    "MOLECULE": "CCOC(=O)CCC(C(=O)OCC)n1nc2ccc(Nc3c(C)[n+]([O-])c4cc(Cl)ccc4[n+]3[O-])cc2n1 (stereo unspecified)",
    "TESTED_ON": "Hs-578T",
    "MEASURED_RESULT": "59.6 µM (inactive)"
  },
  {
    "MOLECULE": "Cc1noc(NS(=O)(=O)c2ccc(NC(=O)c3ccc4[nH]c5ccccc5c(=O)c4c3)cc2)c1C",
    "TESTED_ON": "Hs-578T",
    "MEASURED_RESULT": "42 µM (inactive)"
  },
  {
    "MOLECULE": "COC(=O)c1c(C)cccc1C1CN=NC12Cc1c(C)cccc1C2=O (stereo unspecified)",
    "TESTED_ON": "Hs-578T",
    "MEASURED_RESULT": "80.2 µM (inactive)"
  },
  {
    "MOLECULE": "COC(=O)c1scc(N)c1-n1ccc(=O)[nH]c1=O",
    "TESTED_ON": "Hs-578T",
    "MEASURED_RESULT": "> 100 µM (inactive)"
  },
  {
    "MOLECULE": "NS(=O)(=O)c1ccc(NC(=S)N/C=C2\\C(=O)Oc3ccccc3C2=O)cc1",
    "TESTED_ON": "Hs-578T",
    "MEASURED_RESULT": "17.5 µM (inactive)"
  },
  {
    "MOLECULE": "COC(=O)C(Cc1c(C2Nc3ccccc3C2CC(NC(=O)CNC(C)=O)C(=O)OC)[nH]c2ccccc12)NC(=O)CNC(C)=O (stereo unspecified)",
    "TESTED_ON": "Hs-578T",
    "MEASURED_RESULT": "> 72.6 µM (inactive)"
  },
  {
    "MOLECULE": "O=C1CC(NC(=O)C(F)(F)F)c2c(Br)sc(N3CCNCC3)c21 (stereo unspecified)",
    "TESTED_ON": "Hs-578T",
    "MEASURED_RESULT": "> 100 µM (inactive)"
  },
  {
    "MOLECULE": "CC[C@H](C)[C@H](NC(=O)N(CCC#N)CCN(CCN(C(=O)N[C@@H](Cc1ccccc1)C(=O)OC)c1ccccc1)C(=O)N[C@H](C(=O)OC)C(C)C)C(=O)OC",
    "TESTED_ON": "Hs-578T",
    "MEASURED_RESULT": "23.7 µM (inactive)"
  },
  {
    "MOLECULE": "CCOC(=O)[C@@H]1[C@@H]2NC(=O)N[C@@]1(C)Oc1ccccc12",
    "TESTED_ON": "Hs-578T",
    "MEASURED_RESULT": "> 100 µM (inactive)"
  },
  {
    "MOLECULE": "O=C(O)CCC1(C(=O)O)CCC(=O)c2ccccc21 (stereo unspecified)",
    "TESTED_ON": "Hs-578T",
    "MEASURED_RESULT": "> 100 µM (inactive)"
  },
  {
    "MOLECULE": "O=C(CC(=O)c1ccncc1)c1ccccc1",
    "TESTED_ON": "Hs-578T",
    "MEASURED_RESULT": "> 100 µM (inactive)"
  },
  {
    "MOLECULE": "C/C(=N\\O)c1cccc(Nc2nc3ccccc3c3occc23)c1",
    "TESTED_ON": "Hs-578T",
    "MEASURED_RESULT": "12.1 µM (inactive)"
  },
  {
    "MOLECULE": "O=c1[nH]c(=O)n(C2CC(O)C(CO)O2)cc1OCC1CCCCC1 (stereo unspecified)",
    "TESTED_ON": "Hs-578T",
    "MEASURED_RESULT": "> 100 µM (inactive)"
  }
]

###

system: DLD-1; assay: NCI tumour cell line growth inhibition, 48 h
The source made the active and inactive calls. Cut-off read from the data, not from the text of the source: active = GI50 up to about 1.1 µM and inactive = higher.
# Lookup of reported GI50 keyed by entry

[
  {
    "COMPOUND": "CCCCCCCCCCCCCC(=O)NCC(OCC)OCC",
    "GI50": "> 100 µM (inactive)"
  },
  {
    "COMPOUND": "COc1cc2noc(-c3ccccc3)c2cc1OC",
    "GI50": "64 µM (inactive)"
  },
  {
    "COMPOUND": "CCOC(=O)C(CCCNC(=O)OC(C)(C)C)N(Cc1ccc(OC)cc1OC)C(=O)CC(=O)CP(=O)(OCC)OCC (centres undefined)",
    "GI50": "> 100 µM (inactive)"
  },
  {
    "COMPOUND": "O=C(N/C(=C\\c1ccc(Br)cc1)c1nc2ccccc2s1)c1ccccc1",
    "GI50": "46.9 µM (inactive)"
  },
  {
    "COMPOUND": "CCn1c2ccccc2c2c(-c3ccccc3)cc3c(c21)C(=O)N(c1ccccc1)C3=O",
    "GI50": "> 100 µM (inactive)"
  },
  {
    "COMPOUND": "O=C(O)C12CCCCC1CCCC2 (centres undefined)",
    "GI50": "> 100 µM (inactive)"
  },
  {
    "COMPOUND": "NCCSCC(N)C(=O)O (centres undefined)",
    "GI50": "> 497 µM (inactive)"
  },
  {
    "COMPOUND": "CCCCCCn1c(SCC)c2ccccc2c1-c1nc(F)nc(F)n1",
    "GI50": "> 100 µM (inactive)"
  },
  {
    "COMPOUND": "CN(C)C(=S)/N=c1\\ssc(=S)n1C",
    "GI50": "> 100 µM (inactive)"
  },
  {
    "COMPOUND": "Nc1ncnc2c1ncn2CCCC(c1ccccc1)P(=O)(O)O (centres undefined)",
    "GI50": "> 100 µM (inactive)"
  },
  {
    "COMPOUND": "COC(=O)C1=C(c2cc(OC)c(OC)c(OC)c2)O[C@H](c2ccc3c(c2)OCO3)[C@H]1COC(C)=O",
    "GI50": "26.3 µM (inactive)"
  },
  {
    "COMPOUND": "O=[N+]([O-])c1ccc2[nH]c3c(-c4ccccc4)nccc3c2c1",
    "GI50": "3.73 µM (inactive)"
  },
  {
    "COMPOUND": "C/C(=N\\NC(=S)N1CCCCCC1)c1nccnc1C",
    "GI50": "1.42 µM (inactive)"
  },
  {
    "COMPOUND": "O=C(NN1C(=O)CS(=O)(=O)C1c1ccc(Cl)c(Cl)c1)c1ccncc1 (centres undefined)",
    "GI50": "> 100 µM (inactive)"
  },
  {
    "COMPOUND": "C1=NN(Cc2ccccc2)C(N(Cc2ccccc2)Cc2ccccc2)N1 (centres undefined)",
    "GI50": "21.1 µM (inactive)"
  },
  {
    "COMPOUND": "CC(=O)N1CCc2[nH]c3ccccc3c2CC1",
    "GI50": "> 100 µM (inactive)"
  },
  {
    "COMPOUND": "C=CCn1c(=S)sc2c(C(=O)OCC)c3c(C)cc(C)cn3c2c1=O",
    "GI50": "> 100 µM (inactive)"
  },
  {
    "COMPOUND": "O=C1C(Br)=CC2(C=C1Br)CCNC1=C2C(=O)c2ccccc2C1=O",
    "GI50": "9.25 µM (inactive)"
  },
  {
    "COMPOUND": "CN(C)CCNC(=O)c1cccc2ccc(-c3ccc(F)cc3)nc12",
    "GI50": "3.64 µM (inactive)"
  },
  {
    "COMPOUND": "O=c1[nH]c(=O)n(C2CC(O)C(CO)O2)cc1C(OCC(F)(F)F)OCC(F)(F)F (centres undefined)",
    "GI50": "> 100 µM (inactive)"
  },
  {
    "COMPOUND": "COc1cc(O)c(C(=O)CC(C)=O)c(OC)c1",
    "GI50": "> 100 µM (inactive)"
  },
  {
    "COMPOUND": "COc1ccccc1-c1cc(=O)c2ccccc2[nH]1",
    "GI50": "> 100 µM (inactive)"
  },
  {
    "COMPOUND": "O=S(=O)(O)SC/C=C\\CSS(=O)(=O)O",
    "GI50": "> 100 µM (inactive)"
  },
  {
    "COMPOUND": "COC(=O)C(c1ccc(OC)cc1)N1C(=O)[C@@H](NC(=O)c2ccccc2)[C@H]1[C@@H](C)O (some centres undefined)",
    "GI50": "> 100 µM (inactive)"
  },
  {
    "COMPOUND": "CC1(C)CC[C@]2(C(=O)O)CCC3(C)C(=CCC4[C@@]5(C)CC[C@H](OC6OCC(O)C(O)C6OC6OC(CO)C(O)C(O)C6O)C(C)(C)C5CC[C@]43C)C2C1 (some centres undefined)",
    "GI50": "8.61 µM (inactive)"
  },
  {
    "COMPOUND": "O=[N+]([O-])c1cccc(Nc2nc(Cl)nc(Cl)n2)c1",
    "GI50": "> 100 µM (inactive)"
  },
  {
    "COMPOUND": "COC(=O)[C@H]1CC(=O)C=C2CCCC21 (some centres undefined)",
    "GI50": "> 100 µM (inactive)"
  },
  {
    "COMPOUND": "Cc1ccc(Nc2nc(-c3ccc(-c4ccc([N+](=O)[O-])cc4)o3)cs2)cc1",
    "GI50": "41.4 µM (inactive)"
  },
  {
    "COMPOUND": "CSc1ccc2c(cc1=O)[C@@H](NC(=O)c1ccc(F)cc1)CCc1cc(O)c(O)c(O)c1-2",
    "GI50": "> 100 µM (inactive)"
  }
]
